- Test system: MOLP8 cell line
- PROTOCOL_NOTES: MOLP8 CellEvent Caspase-3/7 Green live-cell IncuCyte apoptosis assay
- Assay type: cell-based, human
- PROTOCOL_CONDITIONS: read-out: MOLP8 Caspase 3/7 AC50 at 22 h; MOLP8 cells, 22 h; averaged values
Please provide measured AC50 for the entries that follow.

COMPOUND	OBSERVED_MEASUREMENT
Cc1nn(CCO)c2c1-c1c(Cl)ccc3c(c(C(=O)O)n(C)c13)CCCOc1cc(cc3ccccc13)SCc1cc(nn1C)CN(C)C2 (single isomer, unassigned) [Compound 40]	~15600 nM

Hi, could you look up AC50 for each item in my list?
1. Cc1c2c(nn1CC1CCOCC1)CN(C)Cc1cc(n(C)n1)CSc1cc(c3ccccc3c1)OCCCc1c(C(=O)O)n(C)c3c-2c(Cl)ccc13 (single isomer, unassigned) [Compound 17]
2. COCCn1nc2c(c1C)-c1c(Cl)ccc3c(c(C(=O)O)n(C)c13)CCCOc1cc(cc3ccccc13)SCc1cc(nn1C)CN(C)C2 (single isomer, unassigned) [Compound 27]

Result:
1: 1220 nM; 2: 90 nM

# per-item lookup of AC50; items listed below
1. Cc1c2c(nn1CCCN1CCOCC1)CN(C)Cc1cc(n(C)n1)CSc1cc(c3ccccc3c1)OCCCc1c(C(=O)O)n(C)c3c-2c(Cl)ccc13 (single isomer, unassigned) [Compound 35]
2. COCCOCCn1nc2c(c1C)-c1c(Cl)ccc3c(c(C(=O)O)n(C)c13)CCCOc1cc(cc3ccccc13)SCc1cc(nn1C)CN(C)C2 (single isomer, unassigned) [Compound 32]
3. Cc1nn(CCN(C)C)c2c1-c1c(Cl)ccc3c(c(C(=O)O)n(C)c13)CCCOc1cc(cc3ccccc13)SCc1cc(nn1C)CN(C)C2 (single isomer, unassigned) [Compound 22]
4. Cc1nn(CCN2CCOCC2)c2c1-c1c(Cl)ccc3c(c(C(=O)O)n(C)c13)CCCOc1cc(cc3ccccc13)SCc1cc(nn1C)CN(C)C2 (single isomer, unassigned) [Compound 42]
5. Cc1c2c(nn1CC1CCOCC1)CN(C)Cc1cc(n(C)n1)CSc1cc(c3ccccc3c1)OCCCc1c(C(=O)O)n(C)c3c-2c(Cl)ccc13 (single isomer, unassigned) [Compound 16]
6. COCCn1nc(C)c2c1CN(C)Cc1cc(n(C)n1)CSc1cc(c3ccccc3c1)OCCCc1c(C(=O)O)n(C)c3c-2c(Cl)ccc13 (single isomer, unassigned) [Compound 25]
7. Cc1nn(CCN(C)C)c2c1-c1c(Cl)ccc3c(c(C(=O)O)n(C)c13)CCCOc1cc(cc3ccccc13)SCc1cc(nn1C)CN(C)C2 (single isomer, unassigned) [Compound 19]

Result:
["150 nM", "~20000 nM", "~17000 nM", "2980 nM", "150 nM", "110 nM", "990 nM"]

* * *

- System: MOLP8 cell line
- PROTOCOL_NOTES: MOLP8 CellEvent Caspase-3/7 Green live-cell IncuCyte apoptosis assay
- Format: cell-based, human
- PROTOCOL_CONDITIONS: Homo sapiens, MOLP-8, 12 h, read-out: MOLP8 Caspase 3/7 AC50 at 12 h (μM), MOLP8 cells, 12 h; averaged values
Binary label based on AC50 with cut-off 0.2 µM: below gives Satisfied, not below gives Not satisfied.

Cc1c2c(nn1C)CSCc1cc(n(CCO)n1)CSc1cc(c3ccccc3c1)OCCCc1c(C(=O)O)n(C)c3c-2c(Cl)ccc13 Not satisfied
Cc1c2c(nn1C)CSCc1cc(nn1CCN1CCOCC1)CSc1cc(c3ccccc3c1)OCCCc1c(C(=O)O)n(C)c3c-2c(Cl)ccc13 Not satisfied
Cc1c2c(nn1C)CSCc1cc(n(CCN(C)C)n1)CSc1cc(c3ccccc3c1)OCCCc1c(C(=O)O)n(C)c3c-2c(Cl)ccc13 Satisfied

Task: Quick check: AC50 of Cc1c2c(nn1C)CSCc1cc(nn1CCO)CSc1cc(c3ccccc3c1)OCCCc1c(C(=O)O)n(C)c3c-2c(Cl)ccc13 under 0.2 µM?
Result: Not satisfied

Task: Hi there! Is AC50 for Cc1c2c(nn1C)CSCc1cc(n(CC3CCOCC3)n1)CSc1cc(c3ccccc3c1)OCCCc1c(C(=O)O)n(C)c3c-2c(Cl)ccc13 below 0.2 µM, do you know?
Result: Satisfied

Hello, the source for this data is patent US20230021562A1, in case you need it.
